Bridge positions count the residues as written; N and C are the ends. Square brackets hold non-standard residues; d marks the D form. Peptide text beside a SMILES is read from it. 2Nal = N[C@@H](Cc1ccc2ccccc2c1)C(=O)O; 3Pal = N[C@@H](Cc1cccnc1)C(=O)O
Assign pKi to each entry below.
Notebook: values listed as pKi are -log10 of the concentration (mol/L).

# value of pKi, Somatostatin receptor type 4 (Homo sapiens), item CC[C@H](C)[C@@H]1NC(=O)[C@H](CCCCN)NC(=O)[C@@H](Cc2c[nH]c3ccccc23)NC(=O)[C@H](Cc2cccnc2)NC(=O)[C@H](NC(=O)[C@@H](N)Cc2ccc3ccccc3c2)CSSC[C@@H](C(=O)N[C@@H](Cc2ccc3ccccc3c2)C(N)=O)NC1=O (H-[2Nal][dC][3Pal][dW]KIC[2Nal]-NH2; disulfide 2-7) = 5.98

# value of pKi, Somatostatin receptor type 4 (Homo sapiens), item CC(C)[C@H]1NC(=O)[C@H](CCCCN)NC(=O)[C@@H](Cc2c[nH]c3ccccc23)NC(=O)[C@H](Cc2c[nH]cn2)NC(=O)C(NC(=O)[C@@H](N)Cc2ccc(F)cc2)CSSCC(C(=O)N[C@@H](Cc2ccc(F)cc2)C(N)=O)NC1=O (stereo in doubt) = 6.07

# value of pKi, Somatostatin receptor type 4 (Homo sapiens), item "CC(C)[C@@H]1NC(=O)[C@H](CCCCN)NC(=O)[C@@H](Cc2c[nH]c3ccccc23)NC(=O)[C@H](Cc2cccnc2)NC(=O)[C@H](NC(=O)[C@@H](N)Cc2ccc(Br)cc2)CSSC[C@@H](C(=O)N[C@@H](Cc2ccc(Br)cc2)C(N)=O)NC1=O" = 5.48
